assay: qHTS assay for small molecule activators of the heat shock response signaling pathway - cell viability counter screen (AID 743209); details: HSE-bla HeLa viability, CellTiter-Glo luminescence, 5 h; series mostly up to 62.6 µM; note: nearly all actives have a fitted effect of over 50% in size; note: potency is the fitted concentration of half-maximal effect
Records with an inconclusive call do not appear. The source made the active and inactive calls. Calls come from the whole dose curve; as a rule, active = well fitted cell-killing curve with a large enough effect in the repeat runs; inconclusive = weak or mixed curves, or effect the other way; inactive = no such curve, though single readings can be large or run the other way.
readout name: Potency

For orientation, consider the following solved cases.
Cc1cccc(Br)c1    inactive
O=C(NO)c1ccccc1    inactive
CC=O    22.9 µM (active)
CCc1cccc(C)c1    inactive
CCN1CCN(c2cc(-c3ccc(F)cc3)c3c(n2)CCCCCC3)CC1    inactive

// query Would you kindly share the measured Potency for "O=Nc1ccc(NO)cc1" ?
// result inactive

// query Thanks! And "Cc1ccc(-n2[nH]c(C)c(N=Nc3cccc(-c4cccc(C(=O)O)c4)c3O)c2=O)cc1C" ?
// result inactive

// query Thanks! And "O=C(Oc1ccccc1)c1cccc(C(=O)Oc2ccccc2)c1" ?
// result inactive

// query Thanks! And "Cn1cnc2ncnc(N)c21" ?
// result inactive

// query Thanks! And "O=C(Nc1ccc(Cl)cc1)Nc1ccc(Cl)c(C(F)(F)F)c1" ?
// result 9.44 µM (active)

// query Thanks! And "Cc1cc(Nc2ccc(O)cc2)ccc1N" ?
// result inactive

// query Thanks! And "CCc1ccc(O)c(C(C)(C)C)c1" ?
// result inactive

// query Thanks! And "CCCCCCOc1ccc(O)cc1" ?
// result inactive

// query Thanks! And CC(O)C#CC(C)O (centres undefined) ?
// result 21.7 µM (active)

// query Thanks! And "Cc1ccc2ccc3cccc4ccc1c2c34" ?
// result inactive

// query Thanks! And "CC(C)(C)C1=CC(=O)C=C(C(C)(C)C)C1=O" ?
// result 43.7 µM (active)

// query Thanks! And "CC(=O)Oc1ccc(C2(c3ccc(OC(C)=O)cc3)C(=O)Nc3ccccc32)cc1" ?
// result inactive

// query Thanks! And "O=C(O)CCCCCCC(=O)O" ?
// result inactive

// query Thanks! And "O[C@@H](c1cc(C(F)(F)F)nc2c(C(F)(F)F)cccc12)[C@H]1CCCCN1" ?
// result inactive
